The measurements presented in this section are drawn from patent US7790896B2.

Parameter SPECTRUM EX: see the listing below.
ASSAY PROTOCOL: Fluorescence spectrum in TE buffer of dyes selected from live cell imaging
Assay type: physicochemical
STATED CONDITIONS: dye 10 μM in TE buffer
METRIC: SPECTRUM EX

> print(dat)
                                   compound       metric  reported.measurement
1  COc1ccc2c(ccc(/C=C/c3ccco3)[n+]2C)c1 [Dye F45]  SPECTRUM EX                400 nm
2  Cc1ccc2ccccc2c1/C=C/c1cc[n+](C)c2ccccc12 [Dye D143]  SPECTRUM EX                400 nm
3  COc1ccc2c(ccc(/C=C/c3ccccc3OCC(=O)O)[n+]2C)c1 [Dye F116]  SPECTRUM EX                400 nm
4  COc1ccc2c(ccc(C=Cc3cc(C(C)(C)C)ccc3O)[n+]2C)c1 [Dye F73]  SPECTRUM EX                400 nm
5  COc1ccc(Oc2cccc(/C=C/c3ccc4ccccc4[n+]3C)c2)cc1 [Dye E83]  SPECTRUM EX                350 nm

* * *

Entries annotated with measured EM (emission λmax), RNA
System: RNA (16S- and 23S-ribosomal from E. coli)
ASSAY PROTOCOL: Fluorescent properties of dye-RNA solution
Assay type: binding
STATED CONDITIONS: TE buffer pH 7.5, dye 5 μM, RNA 200 μg/mL
METRIC: EM (emission λmax), RNA (nm)

> print(dat)
                                   molecule  reported.measurement
1  COc1cc(OC)c(/C=C/c2ccc3ccccc3[n+]2C)c(OC)c1                   532
2  COc1ccc2c(ccc(/C=C/c3ccc(N(C)C)cc3)[n+]2C)c1                   620
3  C[n+]1c(/C=C/c2c[nH]c3ccccc23)ccc2ccccc21                   548
4  COc1ccc2c(ccc(/C=C/c3ccc(N(C)C)cc3[N+](=O)[O-])[n+]2C)c1                   514

* * *

ASSAY PROTOCOL: Fluorescence spectrum in TE buffer of dyes selected from live cell imaging
Assay type: physicochemical
STATED CONDITIONS: dye 10 μM in TE buffer
Returns one of true or false; true when SPECTRUM EM is >= 500 nm.

> print(dat)
                                   molecule  label.class
1  COc1ccc2c(ccc(/C=C/c3c(C)cc(C)cc3C)[n+]2C)c1 [Dye F85]        false
2  COc1ccc2c(ccc(C=Cc3ccccc3N(c3ccccc3)c3ccccc3)[n+]2C)c1 [Dye F138]        false
3  COC(=O)c1cc(OC)cc(OC)c1C=Cc1ccc2cc(OC)ccc2[n+]1C [Dye F145]         true
4  COc1ccc2c(ccc(/C=C/c3cc(I)ccc3O)[n+]2C)c1 [Dye F120]         true
5  COc1ccc2c(ccc(/C=C/c3ccc(OC)c4ccccc34)[n+]2C)c1 [Dye F41]         true
6  COc1ccc2c(ccc(/C=C/c3cccc(OC)c3OC(C)=O)[n+]2C)c1 [Dye F153]        false
